- MEASUREMENT TARGET: T1, Bbc1, P47068
- T1 sequence (P47068 1-78, looked up): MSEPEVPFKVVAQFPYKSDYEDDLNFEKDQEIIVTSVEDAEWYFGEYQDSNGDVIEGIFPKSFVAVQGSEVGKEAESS
- METHOD: SPOT array
- PARTICULARS: median of control spots 796
QUANTITY NAME: SPOT intensity

Examples with answers:
[[record]]
binder = "RNNRPVPPPPPMRTT"
quantity_name = "SPOT intensity"
value_reported = 0

[[record]]
binder = "IVNKPLPPLPVAGSS"
quantity_name = "SPOT intensity"
value_reported = 0

[[record]]
binder = "SKAKRPKFLLDLQIK"
quantity_name = "SPOT intensity"
value_reported = 48

[[record]]
binder = "VAPPPLPNRQLPNLD"
quantity_name = "SPOT intensity"
value_reported = 0


A: AVPPPPPPPPLPESL
B: YRRKSIPFAPHQITA
C: HPRFVSPRIPSRIVK
Ask | Your job: order these 3 records by SPOT intensity, ascending. Labels, requested order.
Reply | A, B, C
(A: 0, B: 2, C: 226)
